- Test system: M14 melanoma
- method_notes: NCI tumour cell line growth inhibition, 48 h
measurement_kind: TGI (µM)
Kindly provide the numeric value in µM only, without the unit symbol.

Below, 2 compounds whose answers are already recorded.
{"structure_smiles_string": "CN(C)c1ccc2nc3c(C(=O)O)cc(=O)c(O)c-3oc2c1", "measured_target": "M14 melanoma", "units_of_measure": "µM", "TGI": 49.8}
{"structure_smiles_string": "O=[N+]([O-])/C(Cl)=C(\\Nc1ccccc1)C(Cl)=C(Cl)Cl", "measured_target": "M14 melanoma", "units_of_measure": "µM", "TGI": 58.4}

Now, please, on to the next compound.
Please give the measured TGI for this compound: "COC(=O)c1c2c(c(C)[n+]([O-])c1C)C(=O)C(NCc1cccc(OC)c1)=CC2=O" 3.72

----------
- System: MDA-MB-435
- method_notes: NCI tumour cell line growth inhibition, 48 h
measurement_kind: TGI (µM)
Kindly provide the numeric value in µM only, without the unit symbol.

Below, 2 molecules whose answers are already recorded.
{"structure_smiles_string": "Cc1cnc2[nH]c(-c3ccc(F)cc3)cc(=O)c2c1", "measured_target": "MDA-MB-435", "TGI, µM": 12.6}
{"structure_smiles_string": "COc1ccc(CNc2nc(NCc3ccc(OC)cc3)nc(NC(C)C)n2)cc1", "measured_target": "MDA-MB-435", "TGI, µM": 11.2}

Now, please, on to the next molecule.
Please give the measured TGI for this molecule: "COc1cc(-c2nc(SCC(=O)Nc3ccc(C(C)=O)cc3)[nH]c(=O)c2C#N)cc(OC)c1OC" 87.6

----------
- Test system: ACHN renal
- method_notes: NCI tumour cell line growth inhibition, 48 h
measurement_kind: TGI

Below, 4 compounds whose answers are already recorded.
{"compound": "NC1=NC2(O)c3ccccc3C(=O)C2(O)N1 (stereo unspecified)", "measurement_kind": "TGI", "reading": "> 100 µM"}
{"compound": "O=C1C(Cl)=C(Nc2cccc(C(F)(F)F)c2)C(=O)N1Cc1ccccc1Cl", "measurement_kind": "TGI", "reading": "17.1 µM"}
{"compound": "O=C1OC(c2ccccc2)=N/C1=C\\c1c(O)cc(O)cc1O", "measurement_kind": "TGI", "reading": "> 100 µM"}
{"compound": "COc1cc(C2CC(c3ccc4c(c3)OCO4)=NN2C(C)=O)cc(OC)c1OC (stereo unspecified)", "measurement_kind": "TGI", "reading": "> 100 µM"}

Please give the measured TGI for this compound: "NS(=O)(=O)c1ccc(NC(=O)CC(=O)Nc2ccc(S(N)(=O)=O)cc2)cc1" > 100 µM

Please give the measured TGI for this compound: "O=C(O)c1ccc(N=Nc2cc(S(=O)(=O)O)c3cccnc3c2O)cc1" > 100 µM

Please give the measured TGI for this compound: CC1(C)CCCCCCCCCC(C)(CCCO)C1=O (stereo unspecified) 31.7 µM

Please give the measured TGI for this compound: "CCOC(=O)c1nc2ccc(Cl)cc2c2c1CCO2" > 100 µM

Please give the measured TGI for this compound: "Cc1cn(CC2=NCC(C)(C)CN2)c(=O)[nH]c1=O" > 100 µM

Please give the measured TGI for this compound: "CCN(CC)CCN=Cc1c(O)c(O)c(C(C)C)c2cc(C)c(-c3c(C)cc4c(C(C)C)c(O)c(O)c(C=NCCN(CC)CC)c4c3O)c(O)c12" 8.37 µM

Please give the measured TGI for this compound: "Cn1cnc([N+](=O)[O-])c1SCC(=O)O" > 100 µM

Please give the measured TGI for this compound: CC1(C)[C@@H]2C[C@H]1C(Cc1ccc(C[C@H]3c4cc(-c5ccccn5)ncc4[C@H]4C[C@@H]3C4(C)C)cc1)c1cc(-c3ccccn3)ncc12 (stereo partly specified) > 100 µM

Please give the measured TGI for this compound: COc1cc2ccc1-c1cc(ccc1O)CC1c3cc4c(cc3CCN1C)Oc1c(OC)cc3c(c1O4)C(C2)N(C)CC3 (stereo unspecified) 3.74 µM

----------
- Tested on: RXF-631 renal
- method_notes: NCI tumour cell line growth inhibition, 48 h
Readings of TGI for the listed molecules

Below, 4 molecules whose answers are already recorded.
{"molecule": "CC(=O)c1c(O)ccc2c1CC(CC=O)O2 (stereo not given)", "TGI": "> 100 µM"}
{"molecule": "CN(C)c1ccc(C2CC(=O)C(C#N)=C(c3ccccc3)NN2C)cc1 (stereo not given)", "TGI": "> 100 µM"}
{"molecule": "COC1=CC(C2c3cc4c(cc3[C@@H](Nc3ccc([N+](=O)[O-])cc3)C3COC(=O)[C@H]23)OCO4)=CC(=O)C1=O (stereo not given in full)", "TGI": "14.1 µM"}
{"molecule": "NC(=O)c1csc(CCCCCCc2nc(C(N)=O)cs2)n1", "TGI": "> 100 µM"}

Please give the measured TGI for this molecule: "O=C(CCCNC(=O)OCc1ccccc1)OCc1ccc2c(c1)C(=O)c1ccccc1C2=O" > 100 µM

----------
Readings of TGI for the listed compounds
- Test system: SF-295 CNS
- method_notes: NCI tumour cell line growth inhibition, 48 h

Below, 4 compounds whose answers are already recorded.
{"compound": "O=C(CCCNC(=O)OCc1ccccc1)OCc1ccc2c(c1)C(=O)c1ccccc1C2=O", "TGI": "83.9 µM"}
{"compound": "CC1=NN2C(=O)CC(=O)N=C2S1", "TGI": "> 100 µM"}
{"compound": "Cc1c2ccnc(-c3ccccc3)c2cc2c1[nH]c1ccccc12", "TGI": "5.45 µM"}
{"compound": "O=C(O)c1ccccn1", "TGI": "> 100 µM"}

Now, please, on to the next compound.
Please give the measured TGI for this compound: "COc1ccc(CNc2nc(NCc3ccc(OC)cc3)nc(NC(C)C)n2)cc1" > 100 µM

----------
- Test system: HCT-15 colon
- method_notes: NCI tumour cell line growth inhibition, 48 h
measurement_kind: TGI

Below, 2 compounds whose answers are already recorded.
{"compound": "CC[C@H](Nc1nc(N)nc(N)c1Cl)c1nc2cccc(NCc3ccc(C(=O)NO)cc3)c2c(=O)n1-c1ccccc1", "TGI": "4.75 µM"}
{"compound": "CCCCSCc1nc2nc(Cl)c(Cl)nc2[nH]1", "TGI": "85.5 µM"}

Please give the measured TGI for this compound: "COc1cc(-c2nn(C(=O)NS(=O)(=O)c3ccc(C)cc3)cc2-c2ccncc2)ccc1Cl" 44.7 µM

Please give the measured TGI for this compound: "NS(=O)(=O)c1ccc(NC(=O)CC(=O)Nc2ccc(S(N)(=O)=O)cc2)cc1" > 100 µM

Please give the measured TGI for this compound: "CN(C)[C@@H]1C(=O)C(C(=O)NCNCCCC(=O)O)=C(O)[C@@]2(O)C(=O)C3=C(O)c4c(O)cccc4[C@@](C)(O)[C@H]3C[C@@H]12" > 100 µM

Please give the measured TGI for this compound: "O=c1oc2cc(O)ccc2c(O)c1C(c1ccccn1)c1c(O)c2ccc(O)cc2oc1=O" > 100 µM

Please give the measured TGI for this compound: "COc1ccc(/C(Cl)=C(\C=O)c2ccc(OC)c(OC)c2)cc1OC" > 100 µM

----------
- System: HCT-116 colon
- method_notes: NCI tumour cell line growth inhibition, 48 h
measurement_kind: TGI

{"molecule": "CCOC(=O)N1C/C(=C/c2ccc(OC)cc2)C(=O)/C(=C/c2ccc(OC)cc2)C1", "TGI": "0.579 µM"}
{"molecule": "C[C@H]1COC2(c3ccccc3)CCC(=O)N12 (stereo partly specified)", "TGI": "> 100 µM"}
{"molecule": "COc1ccc(C2SC(N)=Nc3c2c(C)nn3C(=O)c2ccc(Cl)cc2)cc1 (stereo unspecified)", "TGI": "> 10 µM"}

Please give the measured TGI for this molecule: "O=C(O)c1ccccn1" > 100 µM

Please give the measured TGI for this molecule: "NC(C(F)(F)F)(C(F)(F)F)P(=O)(c1ccccc1)c1ccccc1" > 100 µM

Please give the measured TGI for this molecule: "CC(=O)n1nc(-c2nc3ccccc3nc2Cl)cc1Cl" 25.4 µM

Please give the measured TGI for this molecule: COc1cc(C2CC(c3ccc4c(c3)OCO4)=NN2C(C)=O)cc(OC)c1OC (stereo unspecified) > 100 µM

Please give the measured TGI for this molecule: "Cc1cc(S(=O)(=O)Nc2nc(N)nc(N3CCOCC3)n2)c(SCC(=O)O)cc1Cl" > 10 µM

Please give the measured TGI for this molecule: COc1ccc(NC(=O)c2sc3nc(C)c(C(O)c4ccc(OC)cc4)cc3c2N)cc1 (stereo unspecified) > 50 µM

Please give the measured TGI for this molecule: "O=[N+]([O-])/C(Cl)=C(\Nc1ccccc1)C(Cl)=C(Cl)Cl" > 100 µM

Please give the measured TGI for this molecule: "Cc1[nH]nc2c1N=C(c1ccccc1F)c1cc(C#N)ccc1N2" 6.91 µM

Reference source: PubChem BioAssay (NCI)
